# Tgt: Nanoluciferase-BRD9 fusion protein (Homo sapiens (Human), UniProt Q9H8M2)
# Sequence (Q9H8M2 whole entry, the tested form may be a part): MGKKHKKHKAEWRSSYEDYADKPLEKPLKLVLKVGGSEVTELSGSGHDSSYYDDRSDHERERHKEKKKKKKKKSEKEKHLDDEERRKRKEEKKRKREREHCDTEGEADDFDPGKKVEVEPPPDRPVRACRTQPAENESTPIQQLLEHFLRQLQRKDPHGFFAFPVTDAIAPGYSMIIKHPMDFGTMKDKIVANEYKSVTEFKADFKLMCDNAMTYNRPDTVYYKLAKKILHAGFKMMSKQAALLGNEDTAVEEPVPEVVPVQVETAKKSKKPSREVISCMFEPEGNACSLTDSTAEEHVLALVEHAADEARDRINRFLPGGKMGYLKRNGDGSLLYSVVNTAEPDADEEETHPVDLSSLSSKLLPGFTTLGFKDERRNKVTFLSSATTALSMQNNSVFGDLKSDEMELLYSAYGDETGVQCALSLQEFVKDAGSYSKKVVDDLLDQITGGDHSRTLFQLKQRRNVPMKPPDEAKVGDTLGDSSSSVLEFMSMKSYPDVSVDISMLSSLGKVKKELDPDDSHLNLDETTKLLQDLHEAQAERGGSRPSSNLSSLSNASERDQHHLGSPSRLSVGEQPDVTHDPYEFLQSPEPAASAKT
# Experiment description: SYO1 BRD9 NanoLuc degradation assay
# Type: cell-based
# Run conditions: Table 5B; SYO-1 cells expressing 3×FLAG-NLuc-BRD9, 6 hours; read-out: SYO1 BRD9-NanoLuc degradation IC50
Measurement type: DC50

Observe how each entry below is paired with its result.
>>> result("COc1cc(-c2cn(C)c(=O)c3cnccc23)cc(OC)c1CN1CC(CC(=O)N2CC(Oc3ccc4c(c3)C(=O)N(C3CCC(=O)NC3=O)C4=O)C2)C1 (centres unmarked)")
"100 to 1000 nM"
>>> result("COc1cc(-c2cn(C)c(=O)c3cnccc23)cc(OC)c1CN1CCC(n2cc([C@@H](C)Oc3ccc4c(c3)C(=O)N(C3CCC(=O)NC3=O)C4=O)nn2)CC1 (some centres unmarked)")
"< 10 nM"
>>> result("COc1cc(-c2cn(C)c(=O)c3cnccc23)cc(OC)c1CN1CC(CC(=O)N2CCC3C2CN3c2ccc3c(c2)C(=O)N(C2CCC(=O)NC2=O)C3=O)C1 (centres unmarked)")
"10 to 100 nM"
>>> result("COc1cc(-c2cn(C)c(=O)c3cnccc23)cc(OC)c1CN(C)C(=O)CCCCN1CCCC2(CC(Oc3ccc4c(c3)C(=O)N([C@H]3CCC(=O)NC3=O)C4=O)C2)C1 (some centres unmarked)")
"< 10 nM"
>>> result("COc1cc(-c2cn(C)c(=O)c3cnccc23)cc(OC)c1CN1CCC2(CC1)CN(C(=O)CC#Cc1ccc3c(c1)C(=O)N(C1CCC(=O)NC1=O)C3=O)C2 (centres unmarked)")
"< 10 nM"

# input Param item = COc1cc(-c2cn(C)c(=O)c3cnccc23)cc(OC)c1CN(C)CCOCCn1cc(COCCOc2ccc3c(c2)C(=O)N(C2CCC(=O)NC2=O)C3=O)nn1 (centres unmarked) ; retrieve measured DC50.
# output 10 to 100 nM

----------
# key: entry, value: IC50
# Tgt: BRD9 bromodomain (Homo sapiens (Human))
# Sequence (Q9H8M2 133-239): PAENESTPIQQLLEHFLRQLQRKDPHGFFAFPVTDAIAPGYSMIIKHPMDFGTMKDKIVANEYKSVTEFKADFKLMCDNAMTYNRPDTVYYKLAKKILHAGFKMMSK
# Experiment description: BRD9 bromodomain TR-FRET competition binding assay
# Run conditions: Table 4; competition with biotinylated ligand, 3 nM Flag-BRD9, 90 minutes

Observe how each entry below is paired with its result.
>>> result("COc1cc(-c2cn(C)c(=O)c3cnccc23)cc(OC)c1CNCCCN1CC(Oc2ccc3c(c2)C(=O)N(C2CCC(=O)NC2=O)C3=O)C1 (centres unmarked)")
"< 10 nM"
>>> result("COc1cc(-c2cn(C)c(=O)c3cnccc23)cc(OC)c1CN1CCC2(CC1)CN(C(=O)COc1cccc3c1C(=O)N(C1CCC(=O)NC1=O)C3=O)CCO2 (centres unmarked)")
"< 10 nM"
>>> result("COc1cc(-c2cn(C)c(=O)c3cnccc23)cc(OC)c1CN1CC2CN(C(=O)CCOCCOc3ccc4c(c3)C(=O)N(C3CCC(=O)NC3=O)C4=O)CCC21 (centres unmarked)")
"< 10 nM"
>>> result("COc1cc(-c2cn(C)c(=O)c3cnccc23)cc(OC)c1CN1CCC2(CCN(C(=O)CCOCCOc3cccc4c3C(=O)N(C3CCC(=O)NC3=O)C4=O)CC2)C1 (centres unmarked)")
"< 10 nM"
>>> result("COc1cc(-c2cn(C)c(=O)c3cnccc23)cc(OC)c1CN(C)C(=O)CCCCN1CCOC2(CCN(c3ccc4c(c3)C(=O)N(C3CCC(=O)NC3=O)C4=O)CC2)C1 (centres unmarked)")
"< 10 nM"
>>> result("COc1cc(-c2cn(C)c(=O)c3cnccc23)cc(OC)c1CN1CC(S(=O)(=O)NCCCCCCCCNc2cccc3c2C(=O)N(C2CCC(=O)NC2=O)C3=O)C1 (centres unmarked)")
"< 10 nM"
>>> result("COc1cc(-c2cn(C)c(=O)c3cnccc23)cc(OC)c1CN(C)CC(=O)NCCCCN1CCOC2(CCN(c3ccc4c(c3)C(=O)N(C3CCC(=O)NC3=O)C4=O)CC2)C1 (centres unmarked)")
"10 to 100 nM"
>>> result("COc1cc(-c2cn(C)c(=O)c3cnccc23)cc(OC)c1CN(C)C1CCC2CN(C(=O)CCOCCOc3ccc4c(c3)C(=O)N(C3CCC(=O)NC3=O)C4=O)CC21 (centres unmarked)")
"10 to 100 nM"
>>> result("COc1cc(-c2cn(C)c(=O)c3cnccc23)cc(OC)c1CN1CCC(OC2CCN(C(=O)CCOCCOc3cccc4c3C(=O)N(C3CCC(=O)NC3=O)C4=O)CC2)CC1 (centres unmarked)")
"< 10 nM"
>>> result("COc1cc(-c2cn(C)c(=O)c3cnccc23)cc(OC)c1CN1CCN(CCCOc2ccc3c(c2)C(=O)N(C2CCC(=O)NC2=O)C3=O)CC1 (centres unmarked)")
"< 10 nM"

# input Param item = COc1cc(-c2cn(C)c(=O)c3cnccc23)cc(OC)c1CN1CC[C@@H]1C(=O)NCCCCCCCCNc1cccc2c1C(=O)N(C1CCC(=O)NC1=O)C2=O (some centres unmarked) ; retrieve measured IC50.
# output 10 to 100 nM

----------
# Tgt: Nanoluciferase-BRD9 fusion protein (Homo sapiens (Human))
# Experiment description: SYO1 BRD9 NanoLuc degradation assay
# Format: cell-based
# Run conditions: Table 5A; SYO-1 cells expressing 3×FLAG-NLuc-BRD9, 6 hours; read-out: SYO1 BRD9-NanoLuc degradation IC50
# key: entry, value: DC50

# input Param item = COc1cc(-c2cn(C)c(=O)c3cnccc23)cc(OC)c1CN(C)C1CC2CN(C(=O)CCOCCOc3ccc4c(c3)C(=O)N(C3CCC(=O)NC3=O)C4=O)CC2C1 (stereo not drawn) [Compound D169] ; retrieve measured DC50.
# output 10 to 100 nM

# input Param item = COc1cc(-c2cn(C)c(=O)c3cnccc23)cc(OC)c1CN(C)C1CC2CN(C(=O)CCOCCOc3cccc4c3C(=O)N(C3CCC(=O)NC3=O)C4=O)CC2C1 (stereo not drawn) [Compound D160] ; retrieve measured DC50.
# output 10 to 100 nM

# input Param item = COc1cc(-c2cn(C)c(=O)c3cnccc23)cc(OC)c1CN(C)CC1CC12CCN(C(=O)CCOCCOc1ccc3c(c1)C(=O)N(C1CCC(=O)NC1=O)C3=O)CC2 (stereo not drawn) [Compound D172] ; retrieve measured DC50.
# output 10 to 100 nM

----------
# Tgt: Nanoluciferase-BRD9 fusion protein (Homo sapiens (Human))
# Experiment description: SYO1 BRD9 NanoLuc degradation assay
# Assay type: cell-based
# Run conditions: Table 5C; SYO-1 cells expressing 3×FLAG-NLuc-BRD9, 6 hours; read-out: SYO1 BRD9-NanoLuc degradation IC50
Measurement type: DC50

Observe how each entry below is paired with its result.
>>> result("COc1cc(-c2c(C)n(C)c(=O)c3[nH]c(C)cc23)cc(OC)c1CN1CCC2(CC1)CN(c1ccc3c(c1)C(=O)N(C1CCC(=O)NC1=O)C3)C2 (stereo not drawn)")
"> 1 µM"
>>> result("COc1cc(-c2cn(C)c(=O)c3cnn(C)c23)cc(OC)c1CN1CCC2(CC1)CN(c1ccc3c(c1)CN(C1CCC(=O)NC1=O)C3=O)C2 (stereo not drawn)")
"< 0.01 µM"
>>> result("COc1cc(-c2cn(C)c(=O)c3cn(C)nc23)cc(OC)c1CN1CCC(CN2CCC3(CC2)CN(c2ccc4c(c2)C(=O)N(C2CCC(=O)NC2=O)C4)C3)CC1 (stereo not drawn)")
"< 0.01 µM"
>>> result("COc1cc(-c2cn(C)c(=O)c3cncn23)cc(OC)c1CN1CCC2(CC1)CN(c1ccc3c(c1)C(=O)N(C1CCC(=O)NC1=O)C3)C2 (stereo not drawn)")
"< 0.01 µM"
>>> result("COc1cc(-c2cn(C)c(=O)c3[nH]cc(C)c23)cc(OC)c1CN1CCC2(CC1)CN(c1ccc3c(c1)C(=O)N(C1CCC(=O)NC1=O)C3=O)C2 (stereo not drawn)")
"< 0.01 µM"

Please find the next compound below.
# input Param item = COc1cc(-c2cn(C)c(=O)c3cnccc23)cc(OC)c1CN1CC(Oc2ccc3c(c2)C(=O)N(C2CCC(=O)NC2=O)C3=O)C1C (stereo not drawn) ; retrieve measured DC50.
# output < 0.01 µM

----------
# Tgt: Nanoluciferase-BRD9 fusion protein (Homo sapiens (Human), UniProt Q9H8M2)
# Experiment description: SYO1 BRD9 NanoLuc degradation assay
# Format: cell-based
# Run conditions: Table 5B; SYO-1 cells expressing 3×FLAG-NLuc-BRD9, 6 hours; read-out: SYO1 BRD9-NanoLuc degradation IC50
Measurement type: DC50

Observe how each entry below is paired with its result.
>>> result("COc1cc(-c2cn(C)c(=O)c3cnccc23)cc(OC)c1CN1CC(CC(=O)N2CC3(C2)CN(c2ccc4c(c2)C(=O)N(C2CCC(=O)NC2=O)C4=O)C3)C1 (centres unmarked)")
"10 to 100 nM"
>>> result("COc1cc(-c2cn(C)c(=O)c3cnccc23)cc(OC)c1CN(C)C(=O)CCCCN1CC2(CCN(c3ccc4c(c3)C(=O)N(C3CCC(=O)NC3=O)C4=O)CC2)C1 (centres unmarked)")
"< 10 nM"
>>> result("COc1cc(-c2cn(C)c(=O)c3cnccc23)cc(OC)c1CN1CC(n2cc(COC3CN(c4ccc5c(c4)C(=O)N(C4CCC(=O)NC4=O)C5=O)C3)nn2)C1 (centres unmarked)")
"< 10 nM"
>>> result("COc1cc(-c2cn(C)c(=O)c3cnccc23)cc(OC)c1CN1CCC(n2cc(CN3CC(Oc4ccc5c(c4)C(=O)N(C4CCC(=O)NC4=O)C5=O)C3)nn2)CC1 (centres unmarked)")
"< 10 nM"

# input Param item = COc1cc(-c2cn(C)c(=O)c3cnccc23)cc(OC)c1CN(C)CCOCCOCCOCC(=O)N[C@@H](C(=O)N1C[C@@H](O)C[C@@H]1C(=O)NCc1ccc(-c2scnc2C)cc1)C(C)(C)C ; retrieve measured DC50.
# output > 1000 nM

# input Param item = COc1cc(-c2ccc(=O)n(C)c2)cc(OC)c1CN1CC(CN2CCC3(CC2)CN(c2ccc4c(c2)C(=O)N(C2CCC(=O)NC2=O)C4=O)C3)C1 (centres unmarked) ; retrieve measured DC50.
# output < 10 nM

# input Param item = COc1cc(-c2cn(C)c(=O)c3cnccc23)cc(OC)c1CN1CC2(CCN(CCCC#Cc3ccc4c(c3)C(=O)N(C3CCC(=O)NC3=O)C4=O)CC2)C1 (centres unmarked) ; retrieve measured DC50.
# output 10 to 100 nM

# input Param item = COc1cc(-c2cn(C)c(=O)c3cnccc23)cc(OC)c1CN1CCC2(C1)CN(C(=O)CCC#Cc1ccc3c(c1)C(=O)N(C1CCC(=O)NC1=O)C3=O)C2 (centres unmarked) ; retrieve measured DC50.
# output < 10 nM

# input Param item = COc1cc(-c2cn(C)c(=O)c3cnccc23)cc(OC)c1CN(C)CCCCN1CC2(CCC(Oc3ccc4c(c3)C(=O)N(C3CCC(=O)NC3=O)C4=O)C2)C1 (centres unmarked) ; retrieve measured DC50.
# output < 10 nM

# input Param item = CNC(=O)N(C)Cc1cc(-c2cc(OC)c(CN3CC(CN4CCC5(CC4)CN(c4ccc6c(c4)C(=O)N(C4CCC(=O)NC4=O)C6=O)C5)C3)c(OC)c2)cn(C)c1=O (centres unmarked) ; retrieve measured DC50.
# output > 1000 nM

# input Param item = COc1cc(-c2cn(C)c(=O)c3cncn23)cc(OC)c1CN1CC(CN2CCC3(CC2)CN(c2ccc4c(c2)C(=O)N(C2CCC(=O)NC2=O)C4)C3)C1 (centres unmarked) ; retrieve measured DC50.
# output < 10 nM

These data points were gathered from patent US11414416B1.
